- system-tested: human orexin-2 (hOX2) receptors (Homo sapiens)
- Construct: expressed in transfected cells
- Sequence (O43614 whole entry): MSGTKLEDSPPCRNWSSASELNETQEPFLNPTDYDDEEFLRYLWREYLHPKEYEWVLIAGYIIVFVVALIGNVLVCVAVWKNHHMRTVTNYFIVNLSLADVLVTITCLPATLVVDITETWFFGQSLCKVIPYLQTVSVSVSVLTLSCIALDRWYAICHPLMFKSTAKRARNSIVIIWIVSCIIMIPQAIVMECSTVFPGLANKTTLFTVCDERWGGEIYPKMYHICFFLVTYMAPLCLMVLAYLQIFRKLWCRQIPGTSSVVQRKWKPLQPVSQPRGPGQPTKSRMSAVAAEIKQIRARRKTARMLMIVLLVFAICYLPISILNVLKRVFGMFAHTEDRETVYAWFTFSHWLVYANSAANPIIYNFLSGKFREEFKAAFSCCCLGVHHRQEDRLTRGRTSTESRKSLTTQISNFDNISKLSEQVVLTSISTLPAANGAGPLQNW
- measurement-notes: Intracellular Ca2+ mobilization assay (FLIPR), antagonism of orexin-A
- Type: cell-based
- cond: CHO(dHFr−) cells stably expressing hOX2; orexin-A at EC80 as agonist; Kb=IC50/(1+[A]/EC50); read-out: Kb (μM) OX2R (human)
parameter: Kb

[[record]]
molecule = "CNC(=O)[C@H](N[C@H](CCc1ccc(Cl)cc1)c1ccc(OC)c(OC)c1Cl)c1ccccc1 (racemic) [Example 41]"
result = "0.0167 µM"

[[record]]
molecule = "CNC(=O)[C@H](N[C@@H](CCc1ccccc1)c1ccc(OC)c(OC)c1)c1ccccc1 (single isomer, unassigned) [Example 314]"
result = "0.0067 µM"

[[record]]
molecule = "CNC(=O)[C@H](N[C@H](CCc1ccc(C(F)(F)F)nc1)c1cccc(OC(F)(F)F)c1)c1ccccc1 (racemic) [Example 226]"
result = "0.0195 µM"

